Test: Channel opening activity at SUR2A/Kir6.2 potassium ATP channel in african green monkey COS7 cells assessed as […] by FLIPR
Format: cell-based
Conditions: Chlorocebus aethiops, COS-7
Examples of molecules with documented log10(EC50) follow.
Answers are given as log10 of EC50 in µM.

Use these answered entries as a reference point.
{"columns": ["Molecule", "log10(EC50)"],
 "data": [
  ["CC(N/C(=N\\C#N)Nc1ccncc1)C(C)(C)C (configuration not stated) [PINACIDIL ANHYDROUS]", 1.33],
  ["CC1(C)Oc2ccc(S(=O)(=O)c3ccccc3)cc2[C@@H](n2oc3cc(Cl)ccc3c2=O)[C@@H]1O", 0.39],
  ["CC1(C)Oc2ccc(S(=O)(=O)c3ccccc3)cc2[C@@H](n2oc3ccc(Cl)cc3c2=O)[C@@H]1O", 0.91],
  ["CCC(C)(C)/N=C(\\NC#N)Nc1cccnc1", -0.21],
  ["CC1(C)Oc2ccc(C#N)cc2[C@@H](n2oc3cc(Cl)ccc3c2=O)[C@@H]1O", 0.22],
  ["CC1(C)Oc2ccc(C#N)cc2C(N2CCCC2=O)C1O (configuration not stated)", 0.69]
]}

Okay, now this molecule:
Task: So what does the record say about log10(EC50) for `CCN(CC)S(=O)(=O)c1ccc2c(c1)[C@@H](n1oc3ccc(Cl)cc3c1=O)[C@H](O)C(C)(C)O2` ?
Result: 0.50
